# selectivity ratio annotations
- measurement description: Selectivity index, ratio of IC50 for human HepG2 cells to MIC for Mycobacterium tuberculosis H37Rv ATCC 25618
- Format: toxicity, cell-based
- measurement context: read-out: Selectivity Index

Fc1ccc(-c2nnc3sc(COc4ccccc4)nn23)cc1	1.9
O=[N+]([O-])c1ccc(C2=Nn3c(nnc3-c3ccncc3F)SC2)cc1	59.2
O=[N+]([O-])c1ccc(C2=Nn3c(nnc3-c3ccc(Br)cc3)SC2)cc1	17.3
O=[N+]([O-])c1ccc(C2=Nn3c(Cc4ccc5ccccc5c4)nnc3SC2)cc1	7.29

Record Brc1ccc(-c2nnc3n2N=C(c2ccccc2)CS3)cc1 , field selectivity ratio: 350
